biological target: UniProtKB Q92830; test: KAT2A acetyltransferase biochemical assay (RapidFire mass spectrometry, AcCoA to CoA); conditions: read-out: KAT2A Ki at 1 μM AcCoA, 5 μM H3 1-21 peptide, 0.5 nM KAT2A, 90-minute reaction
// reported log10 of Ki per item
Value Type: log10 of Ki (log10 of the value in nM)

{"Molecule": "CN1CC(C)(C)C[C@H]1C(=O)N[C@@H]1CC[C@@H](Oc2cccc(C(=O)NS(C)(=O)=O)c2-c2cccc(F)c2C2CCC2)C1 (atropisomer, axis not shown) [Example I1]", "Value Type": "log10 of Ki", "Result Value": 1.39}
{"Molecule": "C[C@@H](C(=O)NS(C)(=O)=O)c1ccc(OC[C@H]2C[C@H](NC(=O)[C@@H]3CC(C)(C)CN3C)C2)c(-c2cccc(F)c2C2CCC2)c1 (single isomer, unassigned)", "Value Type": "log10 of Ki", "Result Value": 0.11}
{"Molecule": "CCc1c(F)cccc1-c1cc(C(C)(C)C(=O)NS(C)(=O)=O)ccc1O[C@@H]1CC[C@@H](NC(=O)[C@]2(F)CNC3(CCC3)C2)C1 (single isomer, unassigned)", "Value Type": "log10 of Ki", "Result Value": -0.30}
{"Molecule": "CCn1cc(-c2ccc(O[C@@H]3CC[C@@H](NC(=O)[C@@]4(F)CNC5(CCC5)C4)C3)c(-c3cccc(F)c3C3CCC3)c2)c(C(=O)O)n1 (single isomer, unassigned) [Example J14]", "Value Type": "log10 of Ki", "Result Value": 2.45}
{"Molecule": "CCS(=O)(=O)NC(=O)C(C)(C)c1ccc(O[C@@H]2CC[C@@H](NC(=O)[C@@]3(F)CNCC(C)(C)C3)C2)c(-c2cccc(F)c2C2CCC2)c1 (single isomer, unassigned) [Example B22]", "Value Type": "log10 of Ki", "Result Value": -1.05}
{"Molecule": "CCc1c(F)cccc1-c1cc(C(C)(C)C(=O)NS(=O)(=O)C2(C)CC2)ccc1O[C@@H]1CC[C@@H](NC(=O)[C@@]2(F)CNC3(CCC3)C2)C1", "Value Type": "log10 of Ki", "Result Value": 0.82}
{"Molecule": "CC(C)(C(=O)NS(=O)(=O)C1(C)CC1)c1ccc(O[C@@H]2CC[C@@H](NC(=O)[C@@]3(F)CNC4(CCC4)C3)C2)c(-c2cccc(F)c2C2CCC2)c1 (single isomer, unassigned) [Example B34]", "Value Type": "log10 of Ki", "Result Value": -1.40}

---

target: KAT2B (Homo sapiens (Human), UniProt Q92831); assay: KAT2B acetyltransferase biochemical assay (RapidFire mass spectrometry, AcCoA to CoA); conditions: read-out: KAT2B Ki at 1 μM AcCoA; 1 μM AcCoA, 5 μM H3 1-21 peptide, 0.5 nM KAT2B, 90-minute reaction
Sequence (Q92831 2-832): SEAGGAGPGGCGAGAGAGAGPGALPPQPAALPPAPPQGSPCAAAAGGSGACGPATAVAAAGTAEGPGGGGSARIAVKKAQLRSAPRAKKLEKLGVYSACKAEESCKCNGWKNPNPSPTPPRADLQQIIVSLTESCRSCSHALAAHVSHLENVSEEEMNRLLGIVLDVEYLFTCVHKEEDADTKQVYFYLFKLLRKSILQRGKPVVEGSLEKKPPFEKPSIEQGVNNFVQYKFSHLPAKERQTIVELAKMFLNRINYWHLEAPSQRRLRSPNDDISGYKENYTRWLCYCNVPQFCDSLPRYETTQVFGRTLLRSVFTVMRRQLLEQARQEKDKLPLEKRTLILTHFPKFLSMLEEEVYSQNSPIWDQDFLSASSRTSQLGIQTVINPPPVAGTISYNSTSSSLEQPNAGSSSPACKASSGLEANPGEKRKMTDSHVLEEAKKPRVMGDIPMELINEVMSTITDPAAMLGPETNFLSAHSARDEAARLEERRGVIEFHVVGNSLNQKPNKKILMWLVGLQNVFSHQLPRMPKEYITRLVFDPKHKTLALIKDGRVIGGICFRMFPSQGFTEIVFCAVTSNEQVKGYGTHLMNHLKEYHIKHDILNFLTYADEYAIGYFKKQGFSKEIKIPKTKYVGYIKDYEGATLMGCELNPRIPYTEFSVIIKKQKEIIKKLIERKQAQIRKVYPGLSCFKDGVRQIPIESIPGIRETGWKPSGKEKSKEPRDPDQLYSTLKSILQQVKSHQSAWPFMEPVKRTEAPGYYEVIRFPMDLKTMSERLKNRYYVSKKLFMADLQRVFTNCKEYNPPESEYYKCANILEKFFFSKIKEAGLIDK
pKi: −log10 of the molar value.
Listing: pKi of selected compounds

{"Compound": "CN1CC(C)(C)C[C@H]1C(=O)N[C@H]1C[C@H](Oc2ccc(CC(=O)O)cc2-c2cccc(F)c2C2CCC2)C[C@H]1O", "pKi": 9.03}
{"Compound": "CC(C)(C(=O)NS(=O)(=O)N1CCC1)c1ccc(O[C@@H]2CC[C@@H](NC(=O)[C@@]3(F)CNC4(CCC4)C3)C2)c(-c2cccc(F)c2C2CCC2)c1", "pKi": 10.22}
{"Compound": "Cn1cc(-c2ccc(O[C@@H]3CC[C@@H](NC(=O)[C@]4(F)CNC5(CCC5)C4)C3)c(-c3cccc(F)c3C3CCC3)c2)c(C(=O)O)n1 (single isomer, unassigned)", "pKi": 9.31}
{"Compound": "CC(C)(C(=O)O)c1ccc(O[C@@H]2CC[C@@H](NC(=O)[C@@]3(F)CNC4(CCC4)C3)C2)c(-c2cccc(F)c2C2CCC2)c1", "pKi": 8.58}

---

// values below are reported pKi
target: KAT2B (Homo sapiens (Human)); test: KAT2B acetyltransferase biochemical assay (RapidFire mass spectrometry, AcCoA to CoA); settings: read-out: KAT2B Ki at 1 μM AcCoA; 1 μM AcCoA, 5 μM H3 1-21 peptide, 0.5 nM KAT2B, 90-minute reaction
pKi: −log10 of the molar value.
Value Type: pKi

{"Molecule": "CN1CC(C)(C)C[C@H]1C(=O)N[C@@H]1CC[C@@H](Oc2cccc(C(=O)O)c2-c2cccc(F)c2C2CCC2)C1 (atropisomer, axis not shown) [Example H3]", "Target Desc": "KAT2B (Homo sapiens (Human))", "Result Value": 7.48}
{"Molecule": "CC1(C)CNC[C@](F)(C(=O)N[C@@H]2CC[C@@H](Oc3ccc(C(C)(C)C(=O)O)cc3-c3cccc(F)c3C3CCC3)C2)C1 (single isomer, unassigned) [Example A16]", "Target Desc": "KAT2B (Homo sapiens (Human))", "Result Value": 8.61}
{"Molecule": "CN1CC(C)(C)C[C@H]1C(=O)N[C@@H]1CC[C@@H](Oc2cccc(C(=O)NS(=O)(=O)N3CC(F)C3)c2-c2cccc(F)c2C2CCC2)C1 (atropisomer, axis not shown) [Example I12]", "Target Desc": "KAT2B (Homo sapiens (Human))", "Result Value": 7.69}
{"Molecule": "CC(C)(C(=O)NS(=O)(=O)C1(C)CC1)c1ccc(O[C@@H]2CC[C@@H](NC(=O)[C@@]3(F)CNC4(CCC4)C3)C2)c(-c2cccc(F)c2C2CC2)c1 (single isomer, unassigned) [Example C21]", "Target Desc": "KAT2B (Homo sapiens (Human))", "Result Value": 9.96}
{"Molecule": "CC(C)c1ccccc1-c1cc(C(=O)O)ccc1O[C@@H]1CC[C@@H](NC(=O)[C@@H]2CC(C)(C)CN2C)C1 [Example D5]", "Target Desc": "KAT2B (Homo sapiens (Human))", "Result Value": 7.23}

---

target: KAT2A (Homo sapiens (Human), UniProt Q92830); assay: KAT2A acetyltransferase biochemical assay (RapidFire mass spectrometry, AcCoA to CoA); conditions: read-out: KAT2A Ki at 1 μM AcCoA, 5 μM H3 1-21 peptide, 0.5 nM KAT2A, 90-minute reaction
Sequence (Q92830 whole entry): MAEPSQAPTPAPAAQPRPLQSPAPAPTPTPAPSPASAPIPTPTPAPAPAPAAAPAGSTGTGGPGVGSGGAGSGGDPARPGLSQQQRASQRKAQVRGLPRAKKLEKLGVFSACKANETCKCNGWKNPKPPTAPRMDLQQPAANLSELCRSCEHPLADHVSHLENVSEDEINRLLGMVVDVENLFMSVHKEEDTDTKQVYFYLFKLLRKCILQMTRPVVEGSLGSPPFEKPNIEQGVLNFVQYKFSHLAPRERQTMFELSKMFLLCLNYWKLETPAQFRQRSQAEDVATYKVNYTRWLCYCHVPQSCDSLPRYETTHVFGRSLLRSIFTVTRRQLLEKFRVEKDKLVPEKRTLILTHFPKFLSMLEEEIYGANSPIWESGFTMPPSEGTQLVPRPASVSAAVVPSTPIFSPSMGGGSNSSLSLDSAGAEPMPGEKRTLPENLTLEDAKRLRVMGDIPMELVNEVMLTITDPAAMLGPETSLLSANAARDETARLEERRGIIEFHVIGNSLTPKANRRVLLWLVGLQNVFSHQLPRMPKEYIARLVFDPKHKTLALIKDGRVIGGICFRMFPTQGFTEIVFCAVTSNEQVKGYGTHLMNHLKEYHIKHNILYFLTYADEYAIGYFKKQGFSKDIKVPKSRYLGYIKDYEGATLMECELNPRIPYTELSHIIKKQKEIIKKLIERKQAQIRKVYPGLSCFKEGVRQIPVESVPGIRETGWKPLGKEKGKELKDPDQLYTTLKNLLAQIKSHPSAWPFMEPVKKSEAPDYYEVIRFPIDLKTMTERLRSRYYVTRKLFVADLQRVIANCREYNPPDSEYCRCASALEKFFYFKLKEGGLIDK

{"Compound": "CC(C)(C(=O)NS(C)(=O)=O)c1ccc(O[C@@H]2CC[C@@H](NC(=O)[C@@]3(F)CNC4(CCCC4)C3)C2)c(-c2cccc(F)c2C2CCC2)c1 (single isomer, unassigned) [Example C16]", "Units Text": "nM", "Limit Qualifier": "=", "Ki": 0.08}
{"Compound": "CN1CC(C)(C)C[C@H]1C(=O)N[C@@H]1CC[C@@H](Oc2cccc(CC(=O)NS(N)(=O)=O)c2-c2ccccc2C2CCC2)C1 (atropisomer, axis not shown) [Example I6]", "Units Text": "nM", "Limit Qualifier": "=", "Ki": 387}
{"Compound": "CCS(=O)(=O)NC(=O)Cc1ccc(O[C@@H]2CC[C@@H](NC(=O)[C@@]3(F)CNC4(CCCC4)C3)C2)c(-c2ccccc2C(C)C)c1 (single isomer, unassigned) [Example C63]", "Units Text": "nM", "Limit Qualifier": "=", "Ki": 0.08}
{"Compound": "CCc1ccccc1-c1cc(CC(=O)NS(=O)(=O)C2(C)CC2)ccc1O[C@@H]1CC[C@@H](NC(=O)[C@@]2(F)CNC3(CCC3)C2)C1 [Example C51]", "Units Text": "nM", "Limit Qualifier": "=", "Ki": 0.4}
{"Compound": "CC1(S(=O)(=O)NC(=O)Cc2ccc(O[C@@H]3CC[C@@H](NC(=O)[C@@]4(F)CNC5(CCCC5)C4)C3)c(-c3cccc(F)c3C3CCC3)c2)CC1 (single isomer, unassigned) [Example C68]", "Units Text": "nM", "Limit Qualifier": "=", "Ki": 13.2}
{"Compound": "CCS(=O)(=O)NC(=O)Cc1ccc(O[C@@H]2CC[C@@H](NC(=O)[C@@]3(F)CNC4(CCCC4)C3)C2)c(-c2cccc(F)c2C2CCC2)c1 (single isomer, unassigned) [Example C71]", "Units Text": "nM", "Limit Qualifier": "=", "Ki": 0.01}
{"Compound": "O=C(O)c1nn(C2CC2)cc1-c1ccc(O[C@@H]2CC[C@@H](NC(=O)[C@@]3(F)CNC4(CCC4)C3)C2)c(-c2cccc(F)c2C2CCC2)c1 (single isomer, unassigned) [Example J11]", "Units Text": "nM", "Limit Qualifier": "=", "Ki": 0.08}
{"Compound": "CC(C)(C(=O)NS(=O)(=O)C1CC1)c1ccc(O[C@@H]2CC[C@@H](NC(=O)[C@@]3(F)CNC4(CCCC4)C3)C2)c(-c2cccc(F)c2C2CCC2)c1 (single isomer, unassigned) [Example B26]", "Units Text": "nM", "Limit Qualifier": "=", "Ki": 0.06}
{"Compound": "CN1CC(C)(C)C[C@H]1C(=O)N[C@@H]1CC[C@@H](Oc2ccc(C(C)(C)C(=O)NS(C)(=O)=O)cc2-c2cccc(F)c2C2CC2)C1 [Example E7]", "Units Text": "nM", "Limit Qualifier": "=", "Ki": 26.6}
{"Compound": "CN(C)S(=O)(=O)NC(=O)c1cccc(O[C@@H]2CC[C@@H](NC(=O)[C@@]3(F)CNC4(CCC4)C3)C2)c1-c1cccc(F)c1C1CCC1 [Example I20]", "Units Text": "nM", "Limit Qualifier": "=", "Ki": 26.3}
{"Compound": "CC[C@](C)(C(=O)O)c1ccc(O[C@@H]2CC[C@@H](NC(=O)[C@]3(F)CNC4(CCC4)C3)C2)c(-c2cccc(F)c2C2CCC2)c1 (single isomer, unassigned) [Example A10]", "Units Text": "nM", "Limit Qualifier": ">", "Ki": 1000}
{"Compound": "CCc1c(F)cccc1-c1cc(C(C)(C)C(=O)NS(C)(=O)=O)ccc1O[C@@H]1CC[C@@H](NC(=O)[C@@H]2CC(C)(C)CN2C)C1 [Example E10]", "Units Text": "nM", "Limit Qualifier": "=", "Ki": 26.4}
{"Compound": "CC(C)c1ccccc1-c1cc(C(=O)O)ccc1O[C@@H]1CC[C@@H](NC(=O)[C@@]2(F)CNC3(CCCC3)C2)C1 (single isomer, unassigned) [Example A40]", "Units Text": "nM", "Limit Qualifier": ">", "Ki": 99.9}
{"Compound": "CCS(=O)(=O)NC(=O)C(C)c1ccc(O[C@@H]2CC[C@@H](NC(=O)[C@@]3(F)CNC4(CCC4)C3)C2)c(-c2cccc(F)c2C2CCC2)c1 (single isomer, unassigned) [Example C90]", "Units Text": "nM", "Limit Qualifier": "=", "Ki": 0.05}
{"Compound": "CN1CC(C)(C)C[C@H]1C(=O)N[C@@H]1CC[C@@H](Oc2ccc(C(=O)O)cc2-c2cccc(F)c2C2CCC2)C1 [Example D6]", "Units Text": "nM", "Limit Qualifier": "=", "Ki": 1.08}
{"Compound": "CC1(C)CNC[C@](F)(C(=O)N[C@@H]2CC[C@@H](Oc3ccc(C(C)(C)C(=O)NS(=O)(=O)C4(C)CC4)cc3-c3cccc(F)c3C3CCC3)C2)C1 (single isomer, unassigned) [Example C34]", "Units Text": "nM", "Limit Qualifier": "=", "Ki": 321}
{"Compound": "CC(C)c1ccccc1-c1cc(C(=O)O)ccc1O[C@@H]1CC[C@@H](NC(=O)[C@@H]2CC(C)(C)CN2C)C1 [Example D5]", "Units Text": "nM", "Limit Qualifier": "=", "Ki": 12.8}
{"Compound": "CC1(C)C[C@@](F)(C(=O)N[C@@H]2CC[C@@H](Oc3ccc(C(=O)O)cc3-c3cccc(F)c3C3CCC3)C2)CN1 (single isomer, unassigned) [Example A13]", "Units Text": "nM", "Limit Qualifier": "=", "Ki": 96}
{"Compound": "CN1CC(C)(C)C[C@H]1C(=O)N[C@@H]1CC[C@@H](Oc2cccc(C(=O)NS(=O)(=O)N3CC(F)C3)c2-c2cccc(F)c2C2CCC2)C1 (atropisomer, axis not shown) [Example I12]", "Units Text": "nM", "Limit Qualifier": "=", "Ki": 20.6}
{"Compound": "CN1CC(C)(C)C[C@H]1C(=O)N[C@@H]1CC[C@@H](Oc2cccc(CC(=O)NS(N)(=O)=O)c2-c2ccccc2C2CCC2)C1 (atropisomer, axis not shown) [Example I5]", "Units Text": "nM", "Limit Qualifier": "=", "Ki": 13.6}
{"Compound": "CN1CC(C)(C)C[C@H]1C(=O)N[C@@H]1CC[C@@H](Oc2ccc(C(C)(C)C(=O)NS(C)(=O)=O)cc2-c2ccccc2CC(F)(F)F)C1 [Example E6]", "Units Text": "nM", "Limit Qualifier": "=", "Ki": 53}
